Molecular target: dihydrofolate reductase (DHFR) from Toxoplasmosis gondii (Tx) (Toxoplasma gondii, UniProt Q07422)
Sequence (Q07422 whole entry): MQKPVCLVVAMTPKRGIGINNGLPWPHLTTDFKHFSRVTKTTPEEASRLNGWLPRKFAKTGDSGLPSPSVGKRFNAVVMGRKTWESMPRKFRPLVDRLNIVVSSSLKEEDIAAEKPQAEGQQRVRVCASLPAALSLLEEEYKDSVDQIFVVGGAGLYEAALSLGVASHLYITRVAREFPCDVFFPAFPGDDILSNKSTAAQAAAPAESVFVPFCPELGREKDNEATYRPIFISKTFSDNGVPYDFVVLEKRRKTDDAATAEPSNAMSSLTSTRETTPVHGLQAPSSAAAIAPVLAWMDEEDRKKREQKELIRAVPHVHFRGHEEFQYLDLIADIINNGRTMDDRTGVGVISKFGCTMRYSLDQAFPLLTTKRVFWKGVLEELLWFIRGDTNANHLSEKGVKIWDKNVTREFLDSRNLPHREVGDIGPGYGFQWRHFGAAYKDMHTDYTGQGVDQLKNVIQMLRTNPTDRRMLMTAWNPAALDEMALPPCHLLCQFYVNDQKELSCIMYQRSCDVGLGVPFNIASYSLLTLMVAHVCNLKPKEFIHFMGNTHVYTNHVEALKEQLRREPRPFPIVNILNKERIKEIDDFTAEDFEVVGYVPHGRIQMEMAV
Assay: Inhibition of dihydrofolate reductase from Toxoplasmosis gondii (Tx DHFR)
Settings: Toxoplasma gondii DHFR; read-out: Tx DHFR Inhibitory Concentration (IC50)
log10(IC50): recorded values
Short version: log10 scale, IC50, nM.

# annotated cases, reported log10(IC50) shown
Nc1nc(N)c(Sc2ccccn2)c(=O)[nH]1
3.67
Nc1nc(N)c(Sc2ccc(Cl)cc2)c(=O)[nH]1
2.34
Cc1cccc(CSc2c(N)nc(N)[nH]c2=O)c1
4.06
Nc1nc(N)c(Sc2ccc(Cl)cc2Cl)c(=O)[nH]1
2.15
Nc1nc(N)c(Sc2c(Cl)cccc2Cl)c(=O)[nH]1
3.23

What value of log10(IC50) has been reported for the following molecule? Nc1nc(N)c(SCc2ccc(Br)cc2)c(=O)[nH]1
3.28

I would be grateful if you could share the reported log10(IC50) for Cc1ccc(CSc2c(N)nc(N)[nH]c2=O)cc1 .
3.88

Form field: reported log10(IC50) of COc1ccccc1Sc1c(N)nc(N)[nH]c1=O
3.76

// query log10(IC50) value for entry COc1ccc(Sc2c(N)nc(N)[nH]c2=O)cc1OC
3.28

Param item = Nc1nc(N)c(SCc2ccc(Cl)cc2Cl)c(=O)[nH]1 ; retrieve measured log10(IC50).
2.85

Which value of log10(IC50) has been reported for Nc1nc(N)c(Sc2ccc3ccccc3c2)c(=O)[nH]1 in the records?
2.54

What value of measured log10(IC50) is listed for COc1ccc(OC)c(Sc2c(N)nc(N)[nH]c2=O)c1 ?
2.30

Give the measured log10(IC50) of Nc1nc(N)c(Sc2ccc(C(=O)O)cc2)c(=O)[nH]1 .
4.73

Entry under review: COc1cccc(Sc2c(N)nc(N)[nH]c2=O)c1 . Reported log10(IC50)?
2.76

What value of measured log10(IC50) is listed for Nc1nc(N)c(Sc2cc(Cl)cc(Cl)c2)c(=O)[nH]1 ?
2.43

For the molecule Nc1nc(N)c(Sc2cccc3ccccc23)c(=O)[nH]1 , what log10(IC50) is on record?
2.69

Which measured log10(IC50) value corresponds to Nc1nc(N)c(Sc2ccc([N+](=O)[O-])cc2)c(=O)[nH]1 ?
2.43

Consider the molecule shown here: Nc1nc(N)c(SCc2ccc(Cl)c(Cl)c2)c(=O)[nH]1 What is its recorded log10(IC50)?
3.18

What log10(IC50) value was documented for this molecule, Nc1nc(N)c(Sc2ccccc2Cl)c(=O)[nH]1 ?
2.54

I'd like to know its log10(IC50). The molecule in question is Nc1nc(N)c(SCc2ccccc2)c(=O)[nH]1
3.72

I would be grateful if you could share the reported log10(IC50) for Nc1nc(N)c(Sc2nc(-c3ccccc3)cs2)c(=O)[nH]1 .
4.09

What value of log10(IC50) has been reported for the following molecule? Nc1nc(N)c(SCc2ccccc2Cl)c(=O)[nH]1
3.34

So what does the record say about log10(IC50) for Nc1nc(N)c(SCc2ccc(Cl)cc2)c(=O)[nH]1 ?
4.22

Would you mind telling me what log10(IC50) value was observed for Nc1nc(N)c(Sc2ccncc2)c(=O)[nH]1 ?
3.93

GET /values?readout=log10(IC50)&item= COc1cccc(CSc2c(N)nc(N)[nH]c2=O)c1
3.82

All values here come from patent US6423720B1.
